Tested on: Pfeiffer cells
Assay: CTG cell viability assay (CellTiter-Glo)
Type: cell-based
Details: Homo sapiens, 240 h; Pfeiffer cells, 10 days with compound, CellTiter-Glo; read-out: Cell Proliferation IC50
Description: 1,000 cells were plated into each well of 96-well Corning CellBing cell culture plates and incubated overnight at 37° C. in a humidified CO2 incubator. […] The cell culture plates were then incubated for 10 more days. CTG cell viability assay was performed on the cell culture samples by using CellTiter-Glo® Luminescent Cell Viability Assay Kit (Promega).
pIC50: −log10 of the molar value.
pIC50 of 6 or higher: yes (1). Under 6: no (0).

Here are 5 compounds together with their reported answers.
CN(C)C(=O)c1ccc([C@H]2CN(C3CCc4cccc(F)c43)C[C@@H]2N(C)C)cc1 (mixture of isomers)    no (0)
CN(C)[C@@H]1CN(C2CCc3cccc(F)c32)C[C@H]1c1ccc(N2CCN(C(=O)C(N)=O)CC2)cc1 (mixture of isomers)    yes (1)
CN(C)[C@H]1CN(C2CCc3cccc(F)c32)C[C@@H]1c1ccc(-c2cnn(C)c2)cc1 (mixture of isomers)    yes (1)
CN(C)[C@H]1CN(C2CCc3cccc(F)c32)C[C@@H]1c1cn(C)c2cc(C(=O)N3CCN(S(C)(=O)=O)CC3)ccc12 (mixture of isomers)    yes (1)
CN(CCO)C(=O)c1cccc2c([C@H]3CN(C4CCc5cccc(F)c54)C[C@@H]3N(C)C)cn(C)c12 (mixture of isomers)    yes (1)

Please tell me: is the compound CN(C)[C@@H]1CN(C2CCc3cccc(F)c32)C[C@H]1c1ccc(C(N)=O)cc1 (mixture of isomers) at or over 6 in terms of pIC50? no (0)

Also need CN(C)[C@H]1CN(C2CCc3cccc(F)c32)C[C@@H]1c1cn(C)c2c(C(=O)N3CCN(S(=O)(=O)N(C)C)CC3)cccc12 (mixture of isomers) , thanks. yes (1)

Also need CN(C)[C@H]1CN(C2CCc3cccc(F)c32)C[C@@H]1C1CCN(c2cnc(C(N)=O)cn2)CC1 (mixture of isomers) , thanks. yes (1)

Also need CN1CCN(C(=O)c2cccc3c([C@H]4CN(C5CCc6cccc(F)c65)C[C@@H]4N(C)C)cn(C)c23)CC1=O (mixture of isomers) , thanks. yes (1)

Also need CN(C)[C@@H]1CN(C2CCc3cccc(F)c32)C[C@H]1c1ccc(N2CCN(C(=O)C3COC3)CC2)nc1 (mixture of isomers) , thanks. yes (1)

Also need CN(C)[C@H]1CN(C2CCc3cccc(F)c32)C[C@@H]1c1cn(C)c2c(C(=O)N3CCN(S(=O)(=O)N4CC(C#N)C4)CC3)cccc12 (some centres unmarked) , thanks. yes (1)

Also need CN(C)C(=O)c1ccc2c([C@H]3CN(C4CCc5cccc(F)c54)C[C@@H]3N(C)C)cn(C)c2c1 (mixture of isomers) , thanks. yes (1)

Also need CN(C)C(=O)c1ccc([C@H]2CN(C3CCc4cccc(Cl)c43)C[C@@H]2N(C)C)cc1 (mixture of isomers) , thanks. no (0)

Recorded values, source patent US9957274B2.
